Reference for the values: patent US20220033483A1

tested-on: T1, cTnI quality control product recombinant protein (human, UniProt P19429 1-210, limits assumed)
T1 construct: the assay paragraphs only say cTnI; also called cardiac troponin I; cTnI antigen
assay-overview: AMC biosensor, antibody on sensor
measurement-name: kon (M⁻¹ s⁻¹)
Write it as a number; the unit M⁻¹ s⁻¹ goes unstated.

Worked examples, 2 binders total:
Mutation 1 (antibody, V domains shown, other CDR sites as WT) VH: QVQLQQSGTELAKPGASVKFSCKASGYTFSTYWMYWIKQRPGQGLEWIGYLNPSSGHTDYNQRFKDKATLTADKSSSTAYMQLNSLTSEDSAVYYCARKYFGPFGMDYWGQGTSVTVSS VL: EIFLTQSPAIMSASPGEKVTMTCSASTTVSYVHWYQQKSGTSPKRWLYDTSKIASGIPVRFSGSGSGTSYSLTISSMEAEDAATYYCQQWSTQPYTFGGGTKLEIKR :: 26400
Mutation 3 (antibody, V domains shown, other CDR sites as WT) VH: QVQLQQSGTELAKPGASVKFSCKASIYTFSTYWMYWIKQRPGQGLEWIGYLNPSSGHTGYNQRFKDKATLTADKSSSTAYMQLNSLTSEDSAVYYCARKYFGPFVMDYWGQGTSVTVSS VL: EIFLTQSPAIMSASPGEKVTMTCSASTTVSYIHWYQQKSGTSPKRWLYDTSKIASGIPVRFSGSGSGTSYSLTISSMEAEDAATYYCQRWSTQPYTFGGGTKLEIKR :: 27000

Continue with the next binder.
Request: Could you share which kon value was measured for Mutation 5 (antibody, V domains shown, other CDR sites as WT) VH: QVQLQQSGTELAKPGASVKFSCKASWYTFSTYWMYWIKQRPGQGLEWIGYLNPSSGHTVYNQRFKDKATLTADKSSSTAYMQLNSLTSEDSAVYYCARKYFGPFSMDYWGQGTSVTVSS VL: EIFLTQSPAIMSASPGEKVTMTCSASTTVSYSHWYQQKSGTSPKRWLYDYSKIASGIPVRFSGSGSGTSYSLTISSMEAEDAATYYCQEWSTQPYTFGGGTKLEIKR ?
Response: 702
